pIC50: −log10 of the molar value.
From various publications: pIC50 for Tyrosine-protein kinase JAK3 (Homo sapiens, UniProt P52333).

Lookup: So what's the measured pIC50 for this one? "CCC(CC)n1cc(-c2nc(-c3cnn(C[C@@H](O)C(C)(C)O)c3)cn3nccc23)cn1"
Found: 5.00 to 6.00

Lookup: So what's the measured pIC50 for this one? "C=CC(=O)Nc1cccc(Nc2nc(Nc3ccccc3)ncc2C)c1"
Found: > 8.00

Lookup: So what's the measured pIC50 for this one? "CCC(CC)n1cc(-c2nc(-c3cnn(C[C@H](CO)N(C)C)c3)cn3nccc23)cn1"
Found: 5.00 to 6.00

Lookup: So what's the measured pIC50 for this one? "N#CCCN1[C@@H]2CC[C@H]1C[C@H](Nc1nc(Nc3ncc(CO)s3)cc3ncccc13)C2"
Found: 8.05

Lookup: So what's the measured pIC50 for this one? "C=CC(=O)N[C@@H](C)Cn1nc(-c2ccc(Oc3ccccc3)cc2)c2cncnc21"
Found: < 6.30

Lookup: So what's the measured pIC50 for this one? "Cn1cc(-c2cc3nccn3c(-c3cnn(C4(CCF)CCC4)c3)n2)cn1"
Found: 6.00 to 7.00

Lookup: So what's the measured pIC50 for this one? "CCC(CC)n1cc(-c2nc(-c3cnn(C4CN(C(C)=O)C4)c3)cn3nccc23)cn1"
Found: 5.00 to 6.00

Lookup: So what's the measured pIC50 for this one? "Cc1cnc2nc1Nc1cccc(c1)CCNC(=O)c1ccc(cc1S(C)(=O)=O)-c1cnc(F)c(c1)N2"
Found: 7.00 to 7.96

Lookup: So what's the measured pIC50 for this one? Cn1cc(Nc2ncc(Cl)c(NC3CC4CN(C(=O)CC#N)CC4C3)n2)cn1 (stereo not shown)
Found: 6.44

Lookup: So what's the measured pIC50 for this one? "CN(c1ncnc2[nH]ccc12)C1CC2(C1)CN(C(=O)c1cccnc1)C2"
Found: 5.00 to 6.00

Lookup: So what's the measured pIC50 for this one? CCC(=O)c1cnc(Nc2ccc(C(C)N(C)C)cn2)cc1Nc1cccc(-c2ncn(C)n2)c1OC (stereo not shown)
Found: ≤ 6.30

Lookup: So what's the measured pIC50 for this one? CC1CCC(C(=O)NCC#N)CN1N(C)c1ncnc2[nH]ccc12 (stereo not shown)
Found: 6.00 to 7.00

Lookup: So what's the measured pIC50 for this one? "CS(=O)(=O)N1CC(CCNC(=O)c2noc3c2CN(c2ncnc4[nH]ccc24)CC3)C1"
Found: 6.30 to 7.00

Lookup: So what's the measured pIC50 for this one? "CN(c1ncnc2[nH]ccc12)C1CC2(C1)CN(C(=O)c1cc3ccccc3[nH]1)C2"
Found: ≤ 5.00

Lookup: So what's the measured pIC50 for this one? "Cc1ccnc(NC(=O)c2ccc(Oc3ccnc4[nH]nc(N[C@@H]5CCCN(C(=O)c6cccc(F)c6)C5)c34)cc2)c1"
Found: < 5.00

Lookup: So what's the measured pIC50 for this one? "O=c1[nH]c2c(N3CCCC(F)(F)C3)nc(-n3cnc4ccc(F)cc43)nc2n1C1CCOCC1"
Found: > 7.00

Lookup: So what's the measured pIC50 for this one? "C=CC(=O)Nc1cccc(Oc2nc(Nc3ccc(N4CCC(CN5CCCCC5)CC4)cc3)nc3ccsc23)c1"
Found: 7.00 to 7.30

---

From various publications: pIC50 for Tyrosine-protein kinase JAK3 (Homo sapiens, UniProt P52333).
pIC50: −log10 of the molar value.

Here are 5 molecules together with their reported answers.
[[record]]
compound_structure_string = "C=CC(=O)Nc1cccc(Nc2cc(Nc3ccc(Oc4ccccc4)cc3)ncn2)n1"
target_or_test_system = "Tyrosine-protein kinase JAK3 (Homo sapiens, UniProt P52333)"
observed_measurement = "7.00 to 8.00"

[[record]]
compound_structure_string = "CN1CCC(Nc2nc(-n3cnc4ccc(C#N)cc43)nc3c2[nH]c(=O)n3C2CCOCC2)CC1"
target_or_test_system = "Tyrosine-protein kinase JAK3 (Homo sapiens, UniProt P52333)"
observed_measurement = "> 7.00"

[[record]]
compound_structure_string = "CCNC(=O)N1CCC[C@@H](Nc2n[nH]c3nccc(Oc4ccc(-c5nc6ccccc6s5)cc4)c23)C1"
target_or_test_system = "Tyrosine-protein kinase JAK3 (Homo sapiens, UniProt P52333)"
observed_measurement = "< 5.00"

[[record]]
compound_structure_string = "N#CCNC(=O)CNC(=O)c1ccc(-c2ccnc(Nc3ccc(N4CCOCC4)cc3)n2)cc1"
target_or_test_system = "Tyrosine-protein kinase JAK3 (Homo sapiens, UniProt P52333)"
observed_measurement = "> 6.30"

[[record]]
compound_structure_string = "N#CCCN1CCC[C@@H](Nc2c(-c3ncco3)cnc3[nH]ccc23)C1"
target_or_test_system = "Tyrosine-protein kinase JAK3 (Homo sapiens, UniProt P52333)"
observed_measurement = "≥ 8.00"


Lookup: So what's the measured pIC50 for this one? "C=CC(=O)Nc1cccc(Oc2nc(Nc3ccc(NC4CCN(C(C)C)CC4)nc3)nc3ccsc23)c1"
Found: 7.00 to 7.30

Lookup: So what's the measured pIC50 for this one? "CCCS(=O)(=O)N[C@H]1C[C@@H](Nc2c(-c3nc(C(=O)NC)cs3)cnc3[nH]ccc23)C1"
Found: 7.00 to 8.00

Lookup: So what's the measured pIC50 for this one? "CCOC(=O)c1cnc2[nH]ccc2c1-c1cnn(C2(CC#N)CN(S(=O)(=O)CC)C2)c1"
Found: 7.00 to 8.00

Lookup: So what's the measured pIC50 for this one? "O=C(NCCC(F)(F)F)c1nn(C(=O)CCc2ccccc2)c2c1CN(c1ncnc3[nH]ccc13)CC2"
Found: > 7.00

---

From various publications: IC50 for Tyrosine-protein kinase JAK3 (Homo sapiens).

Here are 3 compounds together with their reported answers.
[[record]]
compound = "CN(C)C/C=C/C(=O)Nc1cccc(Nc2cc(Nc3ccc(F)c(Cl)c3)ncn2)n1"
target_or_test_system = "Tyrosine-protein kinase JAK3 (Homo sapiens)"
observed_measurement = "≤ 10 nM"

[[record]]
compound = "Cc1cnc(CCNC(=O)c2noc3c2CN(c2ncnc4[nH]ccc24)CC3)o1"
target_or_test_system = "Tyrosine-protein kinase JAK3 (Homo sapiens)"
observed_measurement = "> 2000 nM"

[[record]]
compound = "C=CC(=O)N1CCc2ccc(-n3c(=O)ccc4cnc5ccc(-c6ccc(N7CCN(C)CC7)cc6)cc5c43)cc21"
target_or_test_system = "Tyrosine-protein kinase JAK3 (Homo sapiens)"
observed_measurement = "5580 nM"


Would you kindly look at the next entry?
Lookup: So what's the measured IC50 for this one? "CCN1CC(CCF)(n2cc(-c3nc(-c4cnn(C)c4)cc4nccn34)cn2)C1"
Found: > 1000 nM

---

From various publications: pIC50 for UniProt:P52333.
pIC50: −log10 of the molar value.

Here are 5 molecules together with their reported answers.
[[record]]
molecule = "CCC(CC)n1cc(-c2nc(-c3cnn(CC(=O)N4CCOCC4)c3)cn3nccc23)cn1"
measurement_name = "pIC50"
observed_measurement = "5.00 to 6.00"

[[record]]
molecule = "CC1(C)[C@H](Nc2c(C(N)=O)cnn3cc(NS(=O)(=O)c4ccccc4)cc23)CC[C@@]1(C)O (racemic)"
measurement_name = "pIC50"
observed_measurement = 7.66

[[record]]
molecule = "CN(c1ncnc2[nH]ccc12)N1CCCC(c2ncc(C(F)(F)F)[nH]2)C1 (centres unmarked)"
measurement_name = "pIC50"
observed_measurement = "7.00 to 8.00"

[[record]]
molecule = "Cc1nnc(-c2cnc3[nH]ccc3c2N[C@H]2C[C@@H](NS(=O)(=O)c3cccc(C#N)c3)C2)o1"
measurement_name = "pIC50"
observed_measurement = "7.00 to 8.00"

[[record]]
molecule = "NC(=O)c1cnc2[nH]ccc2c1NN1CCC[C@H](C(=O)NCC(F)F)C1"
measurement_name = "pIC50"
observed_measurement = 8.51


Lookup: So what's the measured pIC50 for this one? "CC(C)C(Cn1ccc2cnc(Nc3cnn(CC(=O)OCCO)c3)nc21)C(C)C"
Found: > 7.00

Lookup: So what's the measured pIC50 for this one? "NC(=O)c1cnc(Nc2ccc3c(c2)NC[C@H](O)CO3)nc1NCC1CCC1"
Found: > 8.00

Lookup: So what's the measured pIC50 for this one? "CCCCNc1nc(-c2cc(F)c(O)cc2CC(F)(F)F)nc2[nH]ncc12"
Found: 6.64

Lookup: So what's the measured pIC50 for this one? "C=CC(=O)N1CCC[C@@H](Nc2nc(Nc3cnn(CC)c3)nc3ccsc23)C1"
Found: ≥ 8.00

Lookup: So what's the measured pIC50 for this one? "N#CCC1(n2cc(-c3nc(C4CC4)cc4nccn34)cn2)CN(CC(F)(F)F)C1"
Found: < 6.00

Lookup: So what's the measured pIC50 for this one? "Cc1cc(Nc2nc(N[C@@H]3C[C@H]4CC[C@@H](C3)N4CCC#N)nc3cc(-c4cnn(C)c4)ccc23)n[nH]1"
Found: 7.83

Lookup: So what's the measured pIC50 for this one? "C=CC(=O)N1CCC[C@@H](n2nc(-c3ccc(Oc4ccccc4)cc3)c3cncc(F)c32)C1"
Found: < 6.30

Lookup: So what's the measured pIC50 for this one? "CCC(=O)c1cnc(Nc2ncc(OC3COC3)cc2F)cc1Nc1cccc(-c2ncn(C)n2)c1OC"
Found: ≤ 6.30

Lookup: So what's the measured pIC50 for this one? "O=C(CCl)Nc1cccc(-c2cnc3ccccc3n2)c1"
Found: 9.70

Lookup: So what's the measured pIC50 for this one? "CCC(=O)c1cnc(Nc2ccc(C(N)=O)cn2)cc1Nc1cccc(-c2ncn(C)n2)c1OC"
Found: 6.30 to 7.30

Lookup: So what's the measured pIC50 for this one? CCOC(=O)c1cnc2[nH]ccc2c1NC1CCC(OCCC#N)C1 (centres unmarked)
Found: 7.00 to 8.00

Lookup: So what's the measured pIC50 for this one? "Cc1cnc2nc1Nc1cccc(c1)CCCNC(=O)c1ccc(cc1[N+](=O)[O-])-c1cnc(F)c(c1)N2"
Found: 7.00 to 7.96

Lookup: So what's the measured pIC50 for this one? "C=CC(=O)N1CCC[C@@H](Nc2n[nH]c3nccc(O[C@H]4CC[C@H](C(=O)Nc5ncc(C)s5)CC4)c23)C1"
Found: 6.00 to 7.00

Lookup: So what's the measured pIC50 for this one? "Cn1cccc1-c1nc2cnc(-n3cnc4ccc(F)cc43)nc2n1C1CCOCC1"
Found: 6.00 to 7.00

Lookup: So what's the measured pIC50 for this one? "CN1CCN(c2ccc(Nc3nccc(-c4ccc(C(=O)NCC#N)cc4)n3)cc2)CC1"
Found: > 6.30

Lookup: So what's the measured pIC50 for this one? "CCC(CC)Cn1ccc2cnc(Nc3cnn(CC(N)=O)c3)nc21"
Found: > 7.00

Lookup: So what's the measured pIC50 for this one? "Cc1c2ccc(Nc3ncc(Cl)c(NC4CCN(c5ccc(C#N)nn5)CC4)n3)cc2nn1C"
Found: 7.70

Lookup: So what's the measured pIC50 for this one? "CN(c1ncnc2[nH]ccc12)C1CC2(C1)CN(C(=O)CC#N)C2"
Found: 5.00 to 6.00
